The origin of these recorded values is patent US20230233707A1.

- Target or system: T1, Fc from human IgG1 (human, UniProt P01857-1 104-330 = IgG part)
- T1 construct: domain: Fc; also called human IgG1 Fc; IgG1 Fc protein
- Measurement description: SEC, design mixed with human IgG1 Fc, overlaid on the single components [panel B]
- Procedure: Synthetic genes encoding designed protein sequences appended with a C-terminal 6× histidine tag were expressed in E. coli. Designs were purified from clarified lysates using immobilized metal affinity chromatography (IMAC), and size exclusion chromatography (SEC) was used as a final purification step. […] For the i52.6 design, adding 100 mM L-arginine to the assembly buffer prevented aggregation after combining with Fc; all other designs readily self-assembled in Tris-buffered saline. […]
Parameter measured: binding result

Solved entries:
Binder: d2.3 (designed binder, also called d2.3 AbC-forming design) MSDEEERNELIKRIREAAQRAREAAERTGDPRVRELARELARIAQIAFYLVLHDPSSSEVNEALKAVVKAIELAVRALEEAEKTGDPEVRELAREVVRLAVEVATATAAGENDTLRKVAERALRLAKEAAKRGDAKAAKQAAKIAKLAAANAGDEDVLKKVELVRLAIELVEIVVENAKRKGDDDKEAAEAALAAFRIVLAAAQLAGIASLEVLELALRLIKEVVENAQREGYDIAVAAIAAAVAFAVVAVAAAAADITSSEVLELAIRLIKEVVENAQREGYVILLAALAAAAAFVVVAAAAKRAGITSSETLKRAIEEIRKRVEEAQREGNDISEAARQAAEEFRKKAEELKGSLEHHHHHH
binding result: binds

Binder: i52.6 (designed binder, Homopentamer for I52 icosahedral cages; C-terminal GS linker and 6xHis tag; also called i52.6 AbC-forming design) MSDEEERNELIKRIREAAQRAREAAERTGDPRVRELARELARLAQRAFYLVLHDPSSSDVNEALKLIVEAIEAAVRALEAAERTGDPKVREEARELVRRAVEAAEEVQRNPSSSEVNEKLKAIVVEIEVKVASLEAKEVTDPDKALKIAKKVIELALEAVKENPSTEALRAVLEAVRLASEVAKRVTDPDKALKIAKLVIELALEAVKEDPSTDALRAVLEAVRLASEVAKRVTDPDKALKIAKLVLELAAEAVKEDPSTDALRAAKEAERLATEVAKRVTDPKKAREIEMLVLKLQMEAILAETEEVKKEIEESKKRPQSESAKNLILIMQLLINQIRLLALQIRMLALQLQEGSLEHHHHHH
binding result: binds

Binder: d2.4 (designed binder, Homodimer for D2 dihedral cages; C-terminal GS linker and 6xHis tag; also called d2.4 AbC-forming design) MSDEEERNELIKRIREAAQRAREAAERTGDPRVRELARELARIAQIAFYLVLHDPSSSEVNEALKAVVKAIELAVRALEAAEKTGDPRVRELAREVVKAAVDVAEAAQAGLNDKLREVAEKALRLAKEALKEGDSTAAELAAEIARLAAKLAGDEDVLKKVKLVLEAIKLVKIVVENAKRKGDDSKEAAEAAVAAFLIVLAAAKLAGIASEEVLELAARLIKEVVENAQREGYDIAVAAIAAAVAFAVVAVAAAAADITSSEVLELAIRLIKEVVENAQREGYVILLAALAAAAAFVVVAAAAKRAGITSSETLKRAIEEIRKRVEEAQREGNDISEAARQAAEEFRKKAEELKGSLEHHHHHH
binding result: binds

Binder: i52.3 (designed binder, Homopentamer for I52 icosahedral cages; C-terminal GS linker and 6xHis tag; also called i52.3 AbC-forming design) MSDEEERNELIKRIREAAQRAREAAERTGDPRVRELARELARLAQRAFYLVLHDPSSSDVNEALKLIVEAIEAAVRALEAAERAGDPELREDAREAVRLAVEAAEEVQRNPSSSTANLLLKAIVALAEALAAAANGDKEKFKKAAESALEIAKRVVEVASKEGDPEAVLEAAKVALRVAELAAKNGDKEVFKKAAESALEVAKRLVEVASKEGDPELVLEAAKVALRVAELAAKNGDKEVFQKAAASAVEVALRLTEVASKEGDSELETEAAKVITRVRELASKQGDAAVAILAETAEVKLEIEESKKRPQSESAKNLILIMQLLINQIRLLVLQIRMLDEQRQEGSLEHHHHHH
binding result: binds

Okay, next one:
Ask: Please report the recorded binding result for d2.7 (designed binder, Homodimer for D2 dihedral cages; C-terminal GS linker and 6xHis tag; also called d2.7 AbC-forming design) MSDEEERNELIKRIREAAQRAREAAERTGDPRVRELARELAKLAQIAFYLVLHDPSAKEVNLALELIVKAIELAVRALEEAEKTGDPHARELAREIVRLAVELARAVAEAAEEAKKQGNSELAEQVARAAQVALEVIKAAITAAKQGDRKAFRAALELVLEVIKAIEEAVKQGNPKKVAEVALKAELIRIVVQNAANKGDDADEAVEAARAAFEIVLAAAQLAGIDSEEVLELAARLIKEVVENAQREGYDIAVAAIAAAVAFAVVAVAAAAADITSSEVLELAIRLIKEVVENAVREGYVILLAALAAAAAFVVVAAAAKRAGITSSETLKRAIEEIRKRVEEAQREGNDISEAARQAAEEFRKKAEELKGSLEHHHHHH .
Result: binds
